B1: tRNA (parent)
chain: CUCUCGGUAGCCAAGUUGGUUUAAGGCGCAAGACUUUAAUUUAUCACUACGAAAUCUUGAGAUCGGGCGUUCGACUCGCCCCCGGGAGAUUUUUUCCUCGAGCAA

Variants of: B1
METHOD: nonsense suppression (GFP-seq) (ratio to wild type); higher = more function; SUP4oc tRNA, yeast GFP reporter sort-seq
This sample holds only a part of the variants without activity.
Would you please tag the item t when its nonsense suppression is 0.2 or above, and f when it is below?

C29U A60G ... f
C5A G19C A62G ... f
U2G G85A ... f
U4A G85A ... f
A13C G61A ... t
U4A G18A C77A ... f
U22G C75U ... t
G66A C75A ... t
A33G G61U ... f
U16A C82U ... t

q: Does G6C U16A C56G U57C U58C U71C have a reported nonsense suppression of at least 0.2?
a: f

q: Does G18C A33G C80G have a reported nonsense suppression of at least 0.2?
a: f

q: Does `C5U` have a reported nonsense suppression of at least 0.2?
a: f

q: Does `C79U` have a reported nonsense suppression of at least 0.2?
a: t

q: Does C3G C56G have a reported nonsense suppression of at least 0.2?
a: f

q: Does C27U A54C have a reported nonsense suppression of at least 0.2?
a: f
